Cited source for all entries: paper PMC3103050

Kindly supply the reported Kd values for the records listed here.
assay target: T1, His-REV1(1130–1251) (human, UniProt Q9UBZ9 1130-1251)
T1 sequence (looked up): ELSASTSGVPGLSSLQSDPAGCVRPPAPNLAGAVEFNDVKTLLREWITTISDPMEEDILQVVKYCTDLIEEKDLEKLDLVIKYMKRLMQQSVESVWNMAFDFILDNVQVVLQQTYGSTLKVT
method description: SPR
One number for each entry, in µM.

// solved cases for Kd follow
binder: CEMSHKKSFFDKKRSER [κ560-575FF]
value type: Kd
reading: 7.6
--
binder: CQSTGTEPFFKQKSLLL [η524-539FF]
value type: Kd
reading: 13

[Q] Report Kd for CASRGVLSFFSKKQMQD [ι539-554FF] please.
[A] 69
